- System: Staphylococcus aureus S13E
- Type: cell-based
PARAMETER: MIC (µg/mL)
Provide the reading as a plain figure in µg/mL.

COMPOUND	UNITS SYMBOL	MIC
CNC(CC(C)C)C(=O)NC1C(=O)NC(CC(N)=O)C(=O)NC2C(=O)NC3C(=O)NC(C(=O)NC(C(=O)O)c4cc(O)cc(O)c4-c4cc3ccc4O)C(OC3CC(C)(N)C(O)C(C)O3)c3ccc(c(Cl)c3)Oc3cc2cc(c3OC2OC(CO)C(O)C(O)C2OC2CC(C)(NCc3ccc(-c4ccccc4C)cc3)C(O)C(C)O2)Oc2ccc(cc2Cl)C1O (centres unmarked)	µg/mL	0.5

Input line: For the compound shown here, CNC(CC(C)C)C(=O)NC1C(=O)NC(CC(N)=O)C(=O)NC2C(=O)NC3C(=O)NC(C(=O)NC(C(=O)O)c4cc(O)cc(O)c4-c4cc3ccc4O)C(OC3CC(C)(N)C(O)C(C)O3)c3ccc(cc3)Oc3cc2cc(c3OC2OC(CO)C(O)C(O)C2OC2CC(C)(NCc3ccc(Oc4ccccc4)cc3)C(O)C(C)O2)Oc2ccc(cc2)C1O (centres unmarked) , give the reported MIC.
Output line: 1

* * *

- System: Staphylococcus aureus S13E
- Assay type: cell-based
PARAMETER: MIC (µg/mL)
Provide the reading as a plain figure in µg/mL.

Worked examples, 3 compounds total:
COMPOUND	UNITS SYMBOL	MIC
CNC(CC(C)C)C(=O)NC1C(=O)NC(CC(N)=O)C(=O)NC2C(=O)NC3C(=O)NC(C(=O)NC(C(=O)O)c4cc(O)cc(O)c4-c4cc3ccc4O)C(OC3CC(C)(N)C(O)C(C)O3)c3ccc(c(Cl)c3)Oc3cc2cc(c3OC2OC(CO)C(O)C(O)C2OC2CC(C)(NCc3ccc(OC)c(OCC4CCCCC4)c3)C(O)C(C)O2)Oc2ccc(cc2Cl)C1O (stereo not drawn) [Compound 142]	µg/mL	2
CN[C@H](CC(C)C)C(=O)N[C@H]1C(=O)N[C@@H](CC(N)=O)C(=O)N[C@H]2C(=O)N[C@H]3C(=O)N[C@H](C(=O)N[C@H](C(=O)O)c4cc(O)cc(O)c4-c4cc3ccc4O)[C@H](O[C@H]3C[C@](C)(N)[C@@H](O)[C@H](C)O3)c3ccc(c(Cl)c3)Oc3cc2cc(c3O[C@@H]2O[C@H](CO)[C@@H](O)[C@H](O)[C@H]2O[C@H]2C[C@](C)(NCc3ccc(Oc4ccc(C(C)(C)C)cc4)cc3)[C@@H](O)[C@H](C)O2)Oc2ccc(cc2Cl)[C@H]1O [Compound 96]	µg/mL	1
COc1ccc2ccccc2c1CNC1(C)CC(OC2C(Oc3c4cc5cc3Oc3ccc(cc3Cl)C(OC3CC(C)(N)C(O)C(C)O3)C3NC(=O)C(NC(=O)C5NC(=O)C(CC(N)=O)NC(=O)C(NC(=O)C(CC(C)C)N(C)Cc5c(OC)ccc6ccccc56)C(O)c5ccc(c(Cl)c5)O4)c4ccc(O)c(c4)-c4c(O)cc(O)cc4C(C(=O)O)NC3=O)OC(CO)C(O)C2O)OC(C)C1O (stereo not drawn) [Compound 282]	µg/mL	16

Here is another compound to look at.
Input line: For the compound shown here, CC(C)CC(C(=O)NC1C(=O)NC(CC(N)=O)C(=O)NC2C(=O)NC3C(=O)NC(C(=O)NC(C(=O)O)c4cc(O)cc(O)c4-c4cc3ccc4O)C(OC3CC(C)(N)C(O)C(C)O3)c3ccc(c(Cl)c3)Oc3cc2cc(c3OC2OC(CO)C(O)C(O)C2OC2CC(C)(NCc3cccc4c3OCO4)C(O)C(C)O2)Oc2ccc(cc2Cl)C1O)N(C)Cc1cccc2c1OCO2 (stereo not drawn) [Compound 269] , give the reported MIC.
Output line: 1

* * *

- Tested on: Staphylococcus aureus 447
- TEST DETAILS: broth micro-dilution MIC
- Format: cell-based
PARAMETER: MIC
Could you write the number and then its unit?

COMPOUND	PARAMETER	REPORTED
CNC(CC(C)C)C(=O)NC1C(=O)NC(CC(N)=O)C(=O)NC2C(=O)NC3C(=O)NC(C(=O)NC(C(=O)O)c4cc(O)cc(O)c4-c4cc3ccc4O)C(OC3CC(C)(N)C(O)C(C)O3)c3ccc(c(Cl)c3)Oc3cc2cc(c3OC2OC(CO)C(O)C(O)C2OC2CC(C)(NCc3ccc(-c4ccc(F)cc4)cc3)C(O)C(C)O2)Oc2ccc(cc2Cl)C1O (stereo not drawn) [Compound 211]	MIC	0.5 µg/mL
CNC(CC(C)C)C(=O)NC1C(=O)NC(CC(N)=O)C(=O)NC2C(=O)NC3C(=O)NC(C(=O)NC(C(=O)O)c4cc(O)cc(O)c4-c4cc3ccc4O)C(OC3CC(C)(N)C(O)C(C)O3)c3ccc(c(Cl)c3)Oc3cc2cc(c3OC2OC(CO)C(O)C(O)C2OC2CC(C)(NCc3ccc(OCCCC#N)cc3)C(O)C(C)O2)Oc2ccc(cc2Cl)C1O (stereo not drawn) [Compound 55]	MIC	4 µg/mL

Here is another compound to look at.
Input line: For the compound shown here, CNC(CC(C)C)C(=O)NC1C(=O)NC(CC(N)=O)C(=O)NC2C(=O)NC3C(=O)NC(C(=O)NC(C(=O)O)c4cc(O)cc(O)c4-c4cc3ccc4O)C(OC3CC(C)(N)C(O)C(C)O3)c3ccc(c(Cl)c3)Oc3cc2cc(c3OC2OC(CO)C(O)C(O)C2OC2CC(C)(NCc3ccncc3)C(O)C(C)O2)Oc2ccc(cc2Cl)C1O (stereo not drawn) [Compound 26] , give the reported MIC.
Output line: 2 µg/mL

* * *

- System: Staphylococcus aureus 447
- TEST DETAILS: broth micro-dilution MIC
- Type: cell-based
Recorded MIC by entry
Provide the reading as a plain figure in µg/mL.

MOLECULE	MEASURED TARGET	UNITS SYMBOL	REPORTED
CNC(CC(C)C)C(=O)NC1C(=O)NC(CC(N)=O)C(=O)NC2C(=O)NC3C(=O)NC(C(=O)NC(C(=O)O)c4cc(O)cc(O)c4-c4cc3ccc4O)C(OC3CC(C)(N)C(O)C(C)O3)c3ccc(c(Cl)c3)Oc3cc2cc(c3OC2OC(CO)C(O)C(O)C2OC2CC(C)(NCc3ccc(OC)c4ccccc34)C(O)C(C)O2)Oc2ccc(cc2Cl)C1O (stereo not drawn)	Staphylococcus aureus 447	µg/mL	2
CNC(CC(C)C)C(=O)NC1C(=O)NC(CC(N)=O)C(=O)NC2C(=O)NC3C(=O)NC(C(=O)NC(C(=O)O)c4cc(O)cc(O)c4-c4cc3ccc4O)C(OC3CC(C)(N)C(O)C(C)O3)c3ccc(c(Cl)c3)Oc3cc2cc(c3OC2OC(CO)C(O)C(O)C2OC2CC(C)(NCc3ccccn3)C(O)C(C)O2)Oc2ccc(cc2Cl)C1O (stereo not drawn)	Staphylococcus aureus 447	µg/mL	0.5
CNC(CC(C)C)C(=O)NC1C(=O)NC(CC(N)=O)C(=O)NC2C(=O)NC3C(=O)NC(C(=O)NC(C(=O)O)c4cc(O)cc(O)c4-c4cc3ccc4O)C(OC3CC(C)(N)C(O)C(C)O3)c3ccc(c(Cl)c3)Oc3cc2cc(c3OC2OC(CO)C(O)C(O)C2OC2CC(C)(NCc3cccc(OC(C)=O)c3)C(O)C(C)O2)Oc2ccc(cc2Cl)C1O (stereo not drawn)	Staphylococcus aureus 447	µg/mL	1
CNC(CC(C)C)C(=O)NC1C(=O)NC(CC(N)=O)C(=O)NC2C(=O)NC3C(=O)NC(C(=O)NC(C(=O)O)c4cc(O)cc(O)c4-c4cc3ccc4O)C(OC3CC(C)(N)C(O)C(C)O3)c3ccc(c(Cl)c3)Oc3cc2cc(c3OC2OC(CO)C(O)C(O)C2OC2CC(C)(NCc3cccc(OCc4ccc5ccccc5n4)c3)C(O)C(C)O2)Oc2ccc(cc2Cl)C1O (stereo not drawn)	Staphylococcus aureus 447	µg/mL	2
CNC(CC(C)C)C(=O)NC1C(=O)NC(CC(N)=O)C(=O)NC2C(=O)NC3C(=O)NC(C(=O)NC(C(=O)O)c4cc(O)cc(O)c4-c4cc3ccc4O)C(OC3CC(C)(NCc4ccc(-c5ccc([N+](=O)[O-])cc5)cc4)C(O)C(C)O3)c3ccc(c(Cl)c3)Oc3cc2cc(c3OC2OC(CO)C(O)C(O)C2OC2CC(C)(NCc3ccc(-c4ccc([N+](=O)[O-])cc4)cc3)C(O)C(C)O2)Oc2ccc(cc2Cl)C1O (stereo not drawn)	Staphylococcus aureus 447	µg/mL	2

Here is another molecule to look at.
Input line: For the molecule shown here, C=CCCCCCCCCNC1(C)CC(OC2C(Oc3c4cc5cc3Oc3ccc(cc3Cl)C(OC3CC(C)(N)C(O)C(C)O3)C3NC(=O)C(NC(=O)C5NC(=O)C(CC(N)=O)NC(=O)C(NC(=O)C(CC(C)C)NC)C(O)c5ccc(c(Cl)c5)O4)c4ccc(O)c(c4)-c4c(O)cc(O)cc4C(C(=O)O)NC3=O)OC(CO)C(O)C2O)OC(C)C1O (stereo not drawn) , give the reported MIC.
Output line: 2

* * *

Recorded MIC by entry
- System: Staphylococcus aureus SA1199B
- Type: cell-based
Provide the reading as a plain figure in µg/mL.

Worked examples, 2 compounds total:
COMPOUND	MIC, µg/mL
COc1cc(CNC2(C)CC(OC3C(Oc4c5cc6cc4Oc4ccc(cc4Cl)C(OC4CC(C)(N)C(O)C(C)O4)C4NC(=O)C(NC(=O)C6NC(=O)C(CC(N)=O)NC(=O)C(NC(=O)C(CC(C)C)N(C)Cc6ccc(OCc7ccccc7)c(OC)c6)C(O)c6ccc(c(Cl)c6)O5)c5ccc(O)c(c5)-c5c(O)cc(O)cc5C(C(=O)O)NC4=O)OC(CO)C(O)C3O)OC(C)C2O)ccc1OCc1ccccc1 (stereo not drawn)	2
CNC(CC(C)C)C(=O)NC1C(=O)NC(CC(N)=O)C(=O)NC2C(=O)NC3C(=O)NC(C(=O)NC(C(=O)O)c4cc(O)cc(O)c4-c4cc3ccc4O)C(OC3CC(C)(N)C(O)C(C)O3)c3ccc(c(Cl)c3)Oc3cc2cc(c3OC2OC(CO)C(O)C(O)C2OC2CC(C)(NCC3CCC(COCc4ccccc4)CC3)C(O)C(C)O2)Oc2ccc(cc2Cl)C1O (stereo not drawn)	0.5

Input line: For the compound shown here, CNC(CC(C)C)C(=O)NC1C(=O)NC(CC(N)=O)C(=O)NC2C(=O)NC3C(=O)NC(C(=O)NC(C(=O)O)c4cc(O)cc(O)c4-c4cc3ccc4O)C(OC3CC(C)(N)C(O)C(C)O3)c3ccc(c(Cl)c3)Oc3cc2cc(c3OC2OC(CO)C(O)C(O)C2OC2CC(C)(NCc3ccc(-c4ccc(OC)cc4)cc3)C(O)C(C)O2)Oc2ccc(cc2Cl)C1O (stereo not drawn) , give the reported MIC.
Output line: 1
